- Assay Conditions: 298.15 K; 101.33 kPa; Liquid; Vibrating tube method
Could you label it Y if measured mass density is 800 kg/m3 or higher, and N otherwise?

Molecule | Category Label
C1CCCCCCC1 | Y
CC(C)CC(C)(C)C | N
CCCCCCCCCCCCCC | N
CCCCCCCCCCCC | N
CCCCCCCCCC | N

Determine whether measured mass density meets or exceeds 800 kg/m3 for "CC1CCCCC1"
N

Exam item: decide whether the reported mass density for CC(=O)N(C)C [N,N-dimethylethanamide] is at least 800 kg/m3.
Y
